target: UniProt P10636; test: Tau-BiFC response in tau-BiFC cells (high-content imaging); format: cell-based; design: expressed in transfected cells; host or cells: HEK293 Tau-BiFC cells (G418-selected); details: Tau-BiFC^ON by tauK18^P301L (5 μg/mL); 48 h of treatment
Sequence (P10636 1-441 isoform P10636-8): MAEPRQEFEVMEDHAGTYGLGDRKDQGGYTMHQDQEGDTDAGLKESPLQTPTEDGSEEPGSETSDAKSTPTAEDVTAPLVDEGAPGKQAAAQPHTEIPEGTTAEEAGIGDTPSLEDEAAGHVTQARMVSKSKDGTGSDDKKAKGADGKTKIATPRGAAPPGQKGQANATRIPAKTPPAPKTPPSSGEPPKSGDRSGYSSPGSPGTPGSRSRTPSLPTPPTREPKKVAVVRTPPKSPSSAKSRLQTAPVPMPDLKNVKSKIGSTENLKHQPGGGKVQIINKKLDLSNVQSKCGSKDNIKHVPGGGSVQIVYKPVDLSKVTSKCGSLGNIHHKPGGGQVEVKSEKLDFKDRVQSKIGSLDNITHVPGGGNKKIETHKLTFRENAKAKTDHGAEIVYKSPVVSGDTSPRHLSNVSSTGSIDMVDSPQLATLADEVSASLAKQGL
Sequence (P10636 1-441 isoform P10636-8): as above
Consider the following compounds; for each one, report its EC50.
Write the number in nM without appending the unit.

Prompt line: Let me know recorded EC50 for C[C@@H]1CC(=O)NN=C1c1ccc(NN=C(C#N)C#N)cc1 [Levosimendan] , thanks.
Response line: 2200

Prompt line: Annotate the compound CN(C)c1ccc2c(c1)Sc1cc(N(C)C)ccc1N2.CS(=O)(=O)O.CS(=O)(=O)O [LMTM, leucomethylene blue mesylate] with its measured EC50.
Response line: 2700
